Measured melting point values are reported for all entries that follow.

The cases that follow already have their melting point on record.
compound | melting point
O=C(Cl)C=C(c1ccccc1)c1ccc([N+](=O)[O-])cc1 | 117 to 120 °C
CCOC(=O)N1CCN(CCCCCCNc2cc(OC)cc3c(C)ccnc23)CC1 | 59 to 60 °C

### Prompt Quick one: melting point of Cc1nc2c(c3c1[nH]c1ccccc13)C(=NO)CC(C)C2 (stereo unspecified) ?
### Response 282 to 283 °C

### Prompt Quick one: melting point of `COc1ccc(-n2c(Cn3ccnc3)nc3ccccc32)cc1` ?
### Response 113 to 114 °C

### Prompt Quick one: melting point of `O=C(Nc1cccc(C(=O)O)c1)OCc1cn(-c2cc3cc(C(=O)O)c(=O)[nH]c3cc2[N+](=O)[O-])cn1` ?
### Response > 300 °C

### Prompt Quick one: melting point of Cc1nc(CC2OC(CO)C(O)C2O)n2nc(N(C)C)ccc12 (stereo unspecified) ?
### Response 231 to 232 °C

### Prompt Quick one: melting point of `COc1cc(-c2cc(C(F)(F)F)nn2-c2ccc(S(C)(=O)=O)cc2)ccc1-c1cscn1` ?
### Response 164 to 166 °C

### Prompt Quick one: melting point of CCCCCCCCCCCCNC(=O)N1c2ccccc2C(C)CC1(C)C (stereo unspecified) ?
### Response 48 to 50 °C
